Target chain: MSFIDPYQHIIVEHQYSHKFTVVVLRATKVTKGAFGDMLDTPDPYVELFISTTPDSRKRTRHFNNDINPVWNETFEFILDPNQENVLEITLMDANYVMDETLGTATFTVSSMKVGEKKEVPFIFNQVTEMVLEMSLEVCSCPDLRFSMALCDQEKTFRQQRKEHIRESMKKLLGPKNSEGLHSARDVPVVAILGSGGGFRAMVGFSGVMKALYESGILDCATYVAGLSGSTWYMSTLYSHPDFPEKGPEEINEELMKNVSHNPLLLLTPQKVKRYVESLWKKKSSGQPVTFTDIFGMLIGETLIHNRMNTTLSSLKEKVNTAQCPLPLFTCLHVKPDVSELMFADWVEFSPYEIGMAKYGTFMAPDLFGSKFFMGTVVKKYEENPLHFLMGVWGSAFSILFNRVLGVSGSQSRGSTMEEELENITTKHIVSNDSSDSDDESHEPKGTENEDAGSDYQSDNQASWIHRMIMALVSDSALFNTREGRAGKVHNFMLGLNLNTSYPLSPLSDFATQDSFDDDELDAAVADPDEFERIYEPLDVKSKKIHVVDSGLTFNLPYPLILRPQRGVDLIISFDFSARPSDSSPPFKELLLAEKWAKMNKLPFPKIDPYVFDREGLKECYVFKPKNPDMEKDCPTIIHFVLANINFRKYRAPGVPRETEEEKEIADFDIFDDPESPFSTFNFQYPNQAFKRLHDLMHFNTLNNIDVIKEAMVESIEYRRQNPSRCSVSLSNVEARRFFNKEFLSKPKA
pIC50: −log10 of the molar value.

{"COMPOUND": "CS[C@H]1C[C@@H](C(=O)Nc2ccc(/C=C3\\SC(=S)NC3=O)cc2)N(S(=O)(=O)c2ccc(-c3ccccc3)cc2)C1 [Compound A-45]", "pIC50": 5.32}
{"COMPOUND": "Cc1ccc(CS(=O)(=O)N2CC(OCc3ccc(F)cc3F)C[C@H]2CNC(=O)c2ccc(/C=C3\\SC(=O)NC3=O)cc2)cc1 (stereo partly drawn) [Compound H-3]", "pIC50": 4.85}
{"COMPOUND": "O=C1NC(=O)/C(=C/c2ccc(S(=O)(=O)NC[C@@H]3CC(OCc4ccc(F)cc4F)CN3S(=O)(=O)Cc3ccc(Br)cc3)cc2)S1 (stereo partly drawn) [Compound H-19]", "pIC50": 5.07}

###

Target sequence: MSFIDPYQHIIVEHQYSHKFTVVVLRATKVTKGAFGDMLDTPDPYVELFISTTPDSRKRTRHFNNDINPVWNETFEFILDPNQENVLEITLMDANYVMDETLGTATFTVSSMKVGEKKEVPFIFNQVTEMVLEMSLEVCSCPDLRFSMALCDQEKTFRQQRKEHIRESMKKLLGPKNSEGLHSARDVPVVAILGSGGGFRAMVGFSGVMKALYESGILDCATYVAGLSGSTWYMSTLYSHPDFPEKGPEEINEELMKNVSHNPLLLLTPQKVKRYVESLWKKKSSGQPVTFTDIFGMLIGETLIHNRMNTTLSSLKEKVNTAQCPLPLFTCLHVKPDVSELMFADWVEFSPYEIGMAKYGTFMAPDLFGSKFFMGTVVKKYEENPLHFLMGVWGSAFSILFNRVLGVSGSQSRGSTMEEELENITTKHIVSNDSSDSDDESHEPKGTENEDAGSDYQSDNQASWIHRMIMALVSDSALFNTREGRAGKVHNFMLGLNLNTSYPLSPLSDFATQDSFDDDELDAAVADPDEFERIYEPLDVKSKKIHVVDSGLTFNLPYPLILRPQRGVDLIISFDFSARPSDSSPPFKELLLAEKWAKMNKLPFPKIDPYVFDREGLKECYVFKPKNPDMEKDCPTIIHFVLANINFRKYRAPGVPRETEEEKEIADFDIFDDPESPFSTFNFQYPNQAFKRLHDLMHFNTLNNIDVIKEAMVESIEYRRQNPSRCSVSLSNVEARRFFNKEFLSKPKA
pIC50: −log10 of the molar value.
Measured pIC50, listed per entry for reference.
EXPERIMENTAL ENDPOINT: pIC50

{"MOLECULE": "O=C1NC(=O)/C(=C/c2ccc(NC(=O)[C@@H]3CC(OCc4ccc(C(F)(F)F)cc4)CN3C(=O)c3ccccc3)cc2)S1 (stereo partly drawn)", "VAL": 4.85}
{"MOLECULE": "O=C1NC(=O)/C(=C/c2ccc(NC(=O)[C@@H]3C[C@@H](SCc4ccccc4)CN3S(=O)(=O)c3ccc(-c4ccccc4)cc3)cc2)S1", "VAL": 4.64}
{"MOLECULE": "O=C1NC(=O)C(=Cc2ccc(NC(=O)[C@@H]3C[C@H](SC(c4ccccc4)c4ccccc4)CN3C(=O)c3ccccc3)cc2)S1", "VAL": 5.89}

###

Target chain: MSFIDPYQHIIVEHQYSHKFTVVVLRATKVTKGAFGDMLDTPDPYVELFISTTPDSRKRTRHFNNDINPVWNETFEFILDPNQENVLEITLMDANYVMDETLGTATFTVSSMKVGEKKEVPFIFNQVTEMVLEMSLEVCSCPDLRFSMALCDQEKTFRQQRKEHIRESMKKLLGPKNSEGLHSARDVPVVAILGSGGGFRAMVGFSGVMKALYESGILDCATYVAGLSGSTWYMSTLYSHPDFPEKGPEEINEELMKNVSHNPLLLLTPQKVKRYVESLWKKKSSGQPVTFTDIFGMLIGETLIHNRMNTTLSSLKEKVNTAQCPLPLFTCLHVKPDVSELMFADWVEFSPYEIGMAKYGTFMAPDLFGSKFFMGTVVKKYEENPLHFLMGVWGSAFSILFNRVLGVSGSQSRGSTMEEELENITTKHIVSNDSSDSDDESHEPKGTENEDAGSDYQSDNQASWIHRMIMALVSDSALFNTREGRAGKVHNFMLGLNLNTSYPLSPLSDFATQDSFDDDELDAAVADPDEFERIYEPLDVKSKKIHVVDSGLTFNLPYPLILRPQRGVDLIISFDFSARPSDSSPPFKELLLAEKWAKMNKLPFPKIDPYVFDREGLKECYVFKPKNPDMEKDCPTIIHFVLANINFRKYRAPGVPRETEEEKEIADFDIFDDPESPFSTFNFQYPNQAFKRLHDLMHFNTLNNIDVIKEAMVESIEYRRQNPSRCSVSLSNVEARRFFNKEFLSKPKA
pIC50: −log10 of the molar value.
EXPERIMENTAL ENDPOINT: pIC50

{"MOLECULE": "CC(C)S[C@H]1C[C@@H](C(=O)Nc2ccc(C=C3SC(=S)NC3=O)cc2)N(C(=O)Cc2ccc(Br)cc2)C1", "VAL": 5.29}
{"MOLECULE": "CC(C)=CCC/C(C)=C/COC1C[C@@H](C(=O)Nc2ccc(/C=C3\\SC(=O)NC3=O)cc2)N(C(=O)c2ccccc2)C1 (stereo partly shown)", "VAL": 5.05}
{"MOLECULE": "COC(=O)CCc1cc(C=C2SC(=O)NC2=O)cc(NC(=O)C2CC(OC(c3ccccc3)c3ccccc3)CN2C(=O)c2ccccc2)c1 (stereo not shown)", "VAL": 5.01}
{"MOLECULE": "O=C1NC(=S)SC1=Cc1ccc(NC(=O)[C@@H]2C[C@H](SCc3ccccc3)CN2C(=O)Nc2ccccc2)cc1", "VAL": 5.08}
{"MOLECULE": "O=C1NC(=O)/C(=C/c2ccc(C(=O)NC[C@@H]3C[C@H](OC(c4ccccc4)c4ccccc4)CN3C(=O)c3cccc(OCN4C(=O)c5ccccc5S4(=O)=O)c3)cc2)S1", "VAL": 5.21}
{"MOLECULE": "O=C1NC(=S)S/C1=C\\c1ccc(NC(=O)[C@@H]2C[C@H](SCc3ccccc3)CN2S(=O)(=O)c2ccc(-c3ccccc3)cc2)cc1", "VAL": 5.17}
{"MOLECULE": "CS[C@H]1C[C@@H](C(=O)Nc2ccc(C=C3SC(=S)NC3=O)cc2)N(C(=O)Cc2ccc(Br)cc2)C1", "VAL": 5.55}
{"MOLECULE": "O=C1NC(=O)C(=Cc2cc(CCCO)cc(NC(=O)C3CC(OC(c4ccccc4)c4ccccc4)CN3C(=O)c3ccccc3)c2)S1 (stereo not shown)", "VAL": 4.89}
{"MOLECULE": "CC(C)(C)OC(=O)N1CC(OCc2ccc(F)cc2F)C[C@H]1CNC(=O)c1ccc(/C=C2\\SC(=S)NC2=O)cc1 (stereo partly shown)", "VAL": 4.96}
{"MOLECULE": "O=C1NC(=O)C(=Cc2ccc(COC3CC(CNC(=O)c4ccc(-c5ccccc5)cc4)N(C(=O)c4ccccc4)C3)cc2)S1 (stereo not shown)", "VAL": 5.18}
{"MOLECULE": "CN(C)S(=O)(=O)N1C[C@@H](SCc2ccccc2)C[C@H]1C(=O)Nc1ccc(C=C2SC(=S)NC2=O)cc1", "VAL": 5.32}
{"MOLECULE": "O=C1NC(=O)/C(=C/c2ccc(NC(=O)[C@@H]3CC(OC(c4ccccc4)c4ccccc4)CN3C(=O)c3ccccc3)cc2)S1 (stereo partly shown)", "VAL": 5.38}
{"MOLECULE": "N#CCCCOc1ccc(CS[C@H]2C[C@@H](C(=O)Nc3ccc(/C=C4\\SC(=S)NC4=O)cc3)N(S(=O)(=O)Cc3ccc(Br)cc3)C2)cc1", "VAL": 5.72}
